molecular target: T1, human GPC3 (Glypican-3) (human, UniProt P51654 25-580); experiment: FACS on Huh-7 cells
T1 construct: whole, on cells; The cell line of each value is named under assay
T1 sequence (P51654 25-580, form in doubt): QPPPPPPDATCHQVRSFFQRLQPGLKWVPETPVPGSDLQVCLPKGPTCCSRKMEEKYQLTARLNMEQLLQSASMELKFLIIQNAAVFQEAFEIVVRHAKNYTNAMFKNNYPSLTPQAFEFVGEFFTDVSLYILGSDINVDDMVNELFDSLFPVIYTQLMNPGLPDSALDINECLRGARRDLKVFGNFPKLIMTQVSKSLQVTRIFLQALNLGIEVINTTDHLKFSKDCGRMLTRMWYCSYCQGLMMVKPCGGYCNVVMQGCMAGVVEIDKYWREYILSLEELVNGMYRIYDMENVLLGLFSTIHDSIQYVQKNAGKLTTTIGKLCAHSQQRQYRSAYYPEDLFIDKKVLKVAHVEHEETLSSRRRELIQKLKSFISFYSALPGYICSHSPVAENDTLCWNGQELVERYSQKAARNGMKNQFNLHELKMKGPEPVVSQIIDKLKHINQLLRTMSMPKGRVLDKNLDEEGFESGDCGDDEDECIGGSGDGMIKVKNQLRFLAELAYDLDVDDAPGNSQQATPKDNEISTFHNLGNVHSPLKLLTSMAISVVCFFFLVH
Catalogue of EC50 readings, one per entry.
Expressed in nM, but write only the number.

Use these answered entries as a reference point.
binder: Hu 52H5D3B8-7 (antibody, human IgG1, kappa, V domains shown, also called humanized GPC3 antibody Hu 52H5D3B8-7) VH: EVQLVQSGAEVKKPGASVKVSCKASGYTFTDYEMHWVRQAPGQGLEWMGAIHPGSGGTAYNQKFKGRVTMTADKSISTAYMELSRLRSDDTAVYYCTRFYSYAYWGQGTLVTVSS VL: DVVMTQTPLSLSVTPGQPASISCRSSQSLVHSNGNTYLQWYLQKPGQSPQLLIYKVSNRFSGVPDRFSGSGSGTDFTLKISRVEAEDVGVYYCSQSIHVPYTFGGGTKVEIKR
EC50 (nM): 0.464

binder: GC33 antibody (Chugai Pharmaceutical) (antibody, V domains shown, Control antibody; preparation described in US 7919086 B2; detected with anti-human IgG) VH: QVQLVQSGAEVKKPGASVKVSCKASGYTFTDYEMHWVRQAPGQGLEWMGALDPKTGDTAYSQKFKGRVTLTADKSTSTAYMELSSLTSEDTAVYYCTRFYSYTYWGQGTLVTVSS VL: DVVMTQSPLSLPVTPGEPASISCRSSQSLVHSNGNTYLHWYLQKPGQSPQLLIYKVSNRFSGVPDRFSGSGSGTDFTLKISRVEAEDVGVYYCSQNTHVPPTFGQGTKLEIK
EC50 (nM): 0.953

binder: Hu 52H5D3B8-8 (antibody, human IgG1, kappa, V domains shown, also called humanized GPC3 antibody Hu 52H5D3B8-8; GPC3 antibody) VH: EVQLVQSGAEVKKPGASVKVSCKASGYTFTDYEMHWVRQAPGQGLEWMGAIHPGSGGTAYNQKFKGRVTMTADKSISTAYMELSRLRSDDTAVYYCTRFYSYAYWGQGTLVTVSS VL: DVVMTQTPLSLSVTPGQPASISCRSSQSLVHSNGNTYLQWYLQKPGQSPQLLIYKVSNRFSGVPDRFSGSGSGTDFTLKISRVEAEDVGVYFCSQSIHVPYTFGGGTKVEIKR
EC50 (nM): 0.418

Okay, next one:
Q) Field request: EC50 | item: Y035 CDRs with Hu 52H5D3B8-7 FRs (antibody, V domains shown, detected with anti-human IgG) VH: EVQLVQSGAEVKKPGASVKVSCKASGYTFTDYEMHWVRQAPGQGLEWMGAIHPGSGDTAYNQRFKGRVTMTADKSISTAYMELSRLRSDDTAVYYCTRFYSYAYWGQGTLVTVSS VL: DVVMTQTPLSLSVTPGQPASISCRSSQSLVHSNGNTYLQWYLQKPGQSPQLLIYKVSNRFSGVPDRFSGSGSGTDFTLKISRVEAEDVGVYYCSQSIYVPYTFGGGTKVEIK
A) 0.667

Cited source: patent EP4775226A1
